B1: BCL2L13 (parent)
chain: MASSSTVPLGFHYETKYVVLSYLG

variants of: B1; assay: protein stability index of a GFP-peptide fusion (GPS, HEK-293T) (PSI 1-6); higher = more stable; conditions: c terminus: a fixed tail appended;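 also: lentivirally expressed fusions sorted by FACS into six bins by GFP to DsRed ratio, PSI derived from sequencing read proportions per bin multiplied by bin number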
Outcome: 1 (yes) for protein stability index of at least 2; 0 (no) for anything lower.

Q) Does MAESSTVPLGFHYETKYVVLSYLG [S3E] have a reported protein stability index of at least 2?
A) 1 (yes)

Q) Does MASISTVPLGFHYETKYVVLSYLG [S4I] have a reported protein stability index of at least 2?
A) 1 (yes)

Q) Does MASSSTVPLGFHYECKYVVLSYLG [T15C] have a reported protein stability index of at least 2?
A) 0 (no)

Q) Does MASSSTVPLGFHYETKYGVLSYLG [V18G] have a reported protein stability index of at least 2?
A) 0 (no)

Q) Does MASSSTVPLGFHYETKYVVASYLG [L20A] have a reported protein stability index of at least 2?
A) 1 (yes)

Q) Does MASKSTVPLGFHYETKYVVLSYLG [S4K] have a reported protein stability index of at least 2?
A) 1 (yes)

Q) Does MASSSTVPLRFHYETKYVVLSYLG [G10R] have a reported protein stability index of at least 2?
A) 1 (yes)

Q) Does MASSSTVPLGFHYETKYVVLLYLG [S21L] have a reported protein stability index of at least 2?
A) 1 (yes)
